- Tested on: NCI-H196 SCLC complex tumor spheroid viability
- Assay Details: Anticancer human tumor NCI-H196 cell line growth inhibition;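 further: spheroids exposed to compounds for 7 days before readout; 100% = DMSO vehicle control wells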
- Condition Notes: second compound 0.000949 µM; first compound 1 µM; active compounds read low
Parameter: viability, T/C. Scope: all listed entries.

Molecule: COc1cc(C)[nH]c(=O)c1CN1CCc2c(Cl)cc(C(OC)C3COC3)c(Cl)c2C1=O (stereo unspecified) + COc1cc2c(cc1O)CCNC21CSC2c3c(OC(C)=O)c(C)c4c(c3C(COC1=O)N1C(O)C3Cc5cc(C)c(OC)c(O)c5C(C21)N3C)OCO4
Measurement Unit: %
viability, T/C: 80.9
//
Molecule: [2H]c1nc(C)nc([2H])c1-c1cc(NC[C@@H](C)c2cccc3c(C(=O)NC)ccnc23)ncn1 + COc1cc2c(cc1O)CCNC21CSC2c3c(OC(C)=O)c(C)c4c(c3C(COC1=O)N1C(O)C3Cc5cc(C)c(OC)c(O)c5C(C21)N3C)OCO4
Measurement Unit: %
viability, T/C: 83.5
//
Molecule: Cc1cc(C)c(CNC(=O)c2cc(-c3ccc(CN4CCOCC4)cc3)cc3c2cnn3C2CCCC2)c(=O)[nH]1 + COc1cc2c(cc1O)CCNC21CSC2c3c(OC(C)=O)c(C)c4c(c3C(COC1=O)N1C(O)C3Cc5cc(C)c(OC)c(O)c5C(C21)N3C)OCO4
Measurement Unit: %
viability, T/C: 83.9
//
Molecule: COc1ccc([C@@H](O)c2cc(-c3ncnc4cc(N5CCOCC5)ccc34)c(F)cc2Cl)nn1 + COc1cc2c(cc1O)CCNC21CSC2c3c(OC(C)=O)c(C)c4c(c3C(COC1=O)N1C(O)C3Cc5cc(C)c(OC)c(O)c5C(C21)N3C)OCO4
Measurement Unit: %
viability, T/C: 45.3
//
Molecule: CC(C)n1c(=O)n(C)c2cnc3cc(F)c(-c4ccc(OCCCN5CCCCC5)nc4)cc3c21 + COc1cc2c(cc1O)CCNC21CSC2c3c(OC(C)=O)c(C)c4c(c3C(COC1=O)N1C(O)C3Cc5cc(C)c(OC)c(O)c5C(C21)N3C)OCO4
Measurement Unit: %
viability, T/C: 93.7
//
Molecule: CC1COCCN1c1cc(-c2ccnn2C)c2ccnc(-c3ccn[nH]3)c2n1 (stereo unspecified) + COc1cc2c(cc1O)CCNC21CSC2c3c(OC(C)=O)c(C)c4c(c3C(COC1=O)N1C(O)C3Cc5cc(C)c(OC)c(O)c5C(C21)N3C)OCO4
Measurement Unit: %
viability, T/C: 51.7

Cited source for all entries: PubChem BioAssay AID1845208
